# Test system: OVCAR-5 ovarian
# assay.comment: NCI tumour cell line growth inhibition, 48 h; in the data active = GI50 below about 0.43 µM; inactive = the rest
Possible outcomes: active, inactive

O=C(Oc1ccc([N+](=O)[O-])cc1)N1CCC(C(O)(c2ccc3c(c2)OCO3)c2ccc3c(c2)OCO3)CC1 | inactive
Clc1ccc2c(NCCCN3CCN(c4nc(-n5ccnc5)nc5ccccc45)CC3)ccnc2c1 | inactive
O=S(=O)(Nc1ccc(Cl)c(C(F)(F)F)c1)c1ccc(-c2cnc(C3CC3)o2)cc1 | inactive
Nc1cc(C(F)F)c(-c2nc(N3[C@@H]4CC[C@H]3COC4)nc(N3[C@@H]4CC[C@H]3COC4)n2)cn1 | active
CCOC(=O)c1c(C)c2c(n1C)CSc1cc(S(=O)(=O)c3ccccc3)c(=O)[nH]c1-2 | inactive
CCOC(=O)C(=Cc1ccc(Br)cc1)C(=O)OCC | inactive
C[C@]12CC[C@H]3[C@@H](C[C@@H]4SC(Nc5cccc(F)c5)=N[C@@]45CC(=O)CC[C@]35C)[C@@H]1CCC2=O | inactive
Cc1cc(NC(=O)CCc2ccc(N3C(N)=NC(N)=NC3(C)C)cc2)ccc1S(=O)(=O)F | inactive
COc1ccc(OC)c(-c2nc3sccn3c2/C=C2/C(=O)Nc3ccccc32)c1 | inactive

----------
# Test system: SK-MEL-5 melanoma
# assay.comment: NCI tumour cell line growth inhibition, 48 h
Measured TGI accompanies every entry in the list below.
measurement.type: TGI (µM)

CCN(CC)CC(C)(C)C(=O)/C=C/c1ccc(C)cc1 | 29.1
CCN(C)S(=O)(=O)Nc1cccc(Nc2ncnc3cc(NC(=O)CCl)ccc23)c1Cl | 7.83
Cc1cc(N2CCN(C)CC2)nc(NC2CCCC(Nc3ccnc4cc(Cl)ccc34)C2)n1 (stereo not given) | 3.17
C[C@]12CC[C@@H]3c4ccc(O)cc4CC[C@H]3[C@@H]1CC[C@@H]2NS(=O)(=O)c1cccc(Br)c1 | 3.31
O=C(N/N=C/c1cc2ccccc2c2ccccc12)c1cc(O)c(O)c(O)c1 | 10.6

----------
# Test system: SK-MEL-5 melanoma
# assay.comment: NCI tumour cell line growth inhibition, 48 h
measurement.type: TGI (µM)

COC(=O)c1ccccc1CC1Cc2cc3c(cc2C1)CCC3 | 55.3
NC(=O)c1c(OCc2c(F)cc(Br)cc2F)nsc1NC(=O)NCCCCN1CCCC1 | 2.96
N#CC1=C(N)Oc2c(sc3c(F)cccc23)C1c1ccc([N+](=O)[O-])cc1 (stereo unspecified) | 1.24
C[C@H](CCc1nc(C#N)c(N)o1)[C@H]1CC[C@H]2[C@@H]3[C@@H](O)CC4C[C@@H](O)CC[C@]4(C)[C@H]3C[C@@H](O)[C@]12C (stereo partly specified) | 40.9
Cc1oc2c(c1C(=O)c1ccccc1)C(=O)c1ccccc1C2=O | 4.15
COc1ccc2cc(C(=O)/C=C/c3ccc(OC)c(OC)c3)ccc2c1 | 16.6
COC(=O)C1=NN2c3ccccc3CN([C@@H](C)c3ccccc3)C(=O)[C@@H]2C1 | 32.7
Cc1cccc(C)c1NC(=S)/N=C/C1=C(O)c2ccccc2C1=O | 29.3
O=C1c2cccc3c(N4CCN(c5ccc6c7c(cccc57)C(=O)N(CCN5CCNCC5)C6=O)CC4)ccc(c23)C(=O)N1CCN1CCNCC1 | 53.4
CCCCc1ccc(Nc2nc(Cl)c3[nH]cnc3n2)cc1 | 31.6
Nc1cc(C(F)F)c(-c2nc(N3[C@@H]4CC[C@H]3COC4)nc(N3[C@@H]4CC[C@H]3COC4)n2)cn1 | 4.48
Nc1nc(Cl)c2ncn(Cc3ccccc3CCl)c2n1 | 26.5
Clc1ccc2c(NCCCN3CCN(c4nc(-n5ccnc5)nc5ccccc45)CC3)ccnc2c1 | 3.17
C=CC(=O)Nc1cc2c(Nc3ccc(OCc4ccccn4)c(Cl)c3)ncnc2cc1OCCN1CCOCC1 | 14.3

----------
# Test system: MDA-MB-231 breast
# assay.comment: NCI tumour cell line growth inhibition, 48 h
TGI values for the compounds below.
measurement.type: TGI

CCCCNc1nc(SC)nc2nc[nH]c12 | > 100 µM
C[C@H](CCc1nc(C#N)c(N)o1)[C@H]1CC[C@H]2[C@@H]3[C@@H](O)CC4C[C@@H](O)CC[C@]4(C)[C@H]3C[C@@H](O)[C@]12C (stereo not given in full) | 67.1 µM
CC1=CC(C)C(O)C(C)/C=C/C(O)C/C=C(/C)C(=O)CC(O)C(C)\C=C/C=C/C=C\C(=O)NC2=C(O)c3cc(C)c(O)c(c3C(=O)C2=O)C1=O (stereo not given) | > 100 µM
NC(C(=O)O)C(N)C(=O)O (stereo not given) | > 100 µM
O=S(=O)(Nc1ccccc1S(=O)(=O)c1ccccc1)c1ccccc1 | > 100 µM

----------
# Tested on: HOP-18 NSCLC
# assay.comment: NCI tumour cell line growth inhibition, 48 h
Where a SMILES comes first, the peptide text is derived from it. [ ]: non-standard residue; d: D form. 2Nal = N[CH](Cc1ccc2ccccc2c1)C(=O)O
We begin with a simple list: items and their reported TGI.
measurement.type: TGI

O=C(C#Cc1c[nH]c(=O)[nH]c1=O)c1ccccc1 | 29.2 µM
Cc1ccc(C(=O)/C=C/c2ccccc2Cl)cc1 | 76.1 µM
C=C1CC(OC)(C(O)C(=O)N[C@H]2OCO[C@H]3C2O[C@H](C[C@@H](CO)OC)C(C)(C)C3OC)O[C@H](C)[C@@H]1C (some centres not stated) | < 0.00932 µM
C=C1CC2(OC1=O)c1ccccc1CCc1ccccc12 | 4.61 µM
O=C1C=C(Br)C(=O)C(Br)=C1 | > 100 µM
COCCN1C2=CCCCC2=Nc2c(N)nc(N)nc21 | > 100 µM
CCCCCN(CCCCC)C(=O)[C@@H](CCC(=O)OCc1ccccc1)NC(=O)c1cc2ccccc2[nH]1 | > 100 µM
CCOc1ccc(N=Cc2cc(OC)c(OC)c(OC)c2)cc1 | > 100 µM
COC(=O)C1CCc2c(OC)ccc(OC)c2C1=O (configuration not stated) | > 100 µM
O=C1CCC(=O)c2cc(Br)ccc2N1 | > 100 µM
COC(=O)C(C(=O)C(=O)Nc1ccccc1OC)c1csc(-n2nc(-c3ccccc3)cc2-c2ccccc2)n1 (configuration not stated) | > 100 µM
CN/N=C(\C)CC(=O)Nc1cccc(Cl)c1C | > 100 µM
CC(C)(C)C1CCC2c3c([nH]c4ccccc34)C3C(=O)N(c4ccc(Br)cc4)C(=O)C3C2C1 (configuration not stated) | > 100 µM
O=C1OC(=O)C2C3CCC(O3)C12 (configuration not stated) | > 100 µM
O=C(O)/C(O)=C1/C=C(c2ccccc2)c2ccccc21 | 47.4 µM
CC(NC(=O)C(N)Cc1ccccc1)C(=O)NC(Cc1ccc(O)cc1)C(=O)NC(Cc1c[nH]c2ccccc12)C(=O)NC(CCCCN)C(=O)NC(C(=O)NC(C)C(=O)NC(Cc1ccc2ccccc2c1)C(N)=O)C(C)C (configuration not stated) (H-FAYWKVA[2Nal]-NH2; configuration not given here) | 46.3 µM
CC(C)NC(C)Cc1ccccc1 (configuration not stated) | > 100 µM

----------
# Tested on: MDA-N
# assay.comment: NCI tumour cell line growth inhibition, 48 h
measurement.type: TGI

CC(=O)N1c2ccccc2C23CCN4CC5=CCOC(O)C(C5CC42)C13 (stereo not given) | > 100 µM
CCC(=S)N(C)O | > 100 µM
CO[C@H](/C(C)=C/C=C/C(C)=C/c1coc(C)n1)[C@H](C)[C@H]1C[C@@H](O)[C@@]2(C)O[C@H]2/C=C/[C@@H](C)[C@@H]2C[C@@H](CC(=O)O2)C[C@H]2O[C@@H]2C(=O)O1 | 2.15e-06 µM
NC1=C(c2nc(-c3cc4ccccc4oc3=O)cs2)C(c2ccco2)c2c(c3ccccc3oc2=O)O1 (stereo not given) | > 150 µg/mL
CC1=CC(C)C(O)C(C)/C=C/C(O)C/C=C(/C)C(=O)CC(O)C(C)\C=C/C=C/C=C\C(=O)NC2=C(O)c3cc(C)c(O)c(c3C(=O)C2=O)C1=O (stereo not given) | > 100 µM

----------
# Test system: LOX IMVI melanoma
# assay.comment: NCI tumour cell line growth inhibition, 48 h
Each entry below carries its reported TGI.
measurement.type: TGI

NC(C(=O)O)C(N)C(=O)O (stereo not given) | > 100 µM
C=CC1=C(C)C2=NC1=CC1=NC(=C(CC)/C1=C/O)C=C1C=C3C(=O)C(C(=O)OC)C(=C4NC(=C2)C(C)C4CCC(=O)OC/C=C(\C)CCCC(C)CCCC(C)CCCC(C)C)C3=N1 (stereo not given) (tested in a mixture with another compound) | > 100 µM
OC[C@H]1CC(c2nn[nH]n2)[C@H](O)[C@@H]1O (stereo not given in full) | > 100 µM
OCCOCCO[P+]1(OCCOCCO)n2c3ccc2C(c2ccccc2)=C2C=CC(=N2)C(c2ccccc2)=c2ccc(n21)=C(c1ccccc1)C1=NC(=C3c2ccccc2)C=C1 | 0.952 µM
COCCN1C2=CCCCC2=Nc2c(N)nc(N)nc21 | > 100 µM
Nc1nc(N)c(-c2ccccc2)c(C(=O)Nc2ccc(Cl)c(Cl)c2)n1 | > 100 µM
COC(=O)C1CCc2c(OC)ccc(OC)c2C1=O (stereo not given) | > 100 µM
C=C(CO)CC(O)c1ccccc1 (stereo not given) | > 100 µM
COc1ccc(-c2c(N)[n+]([O-])c3cc(C)c(C)cc3[n+]2[O-])cc1OC | > 100 µM
CCC(C)(C)NC1=C(NC(C)=O)C(=O)c2ccccc2C1=O | > 75 µM
CNC(Cc1ccccc1)c1cccc(OC)c1O (stereo not given) | > 100 µM
COC(=O)C1=NN2c3ccccc3CN([C@@H](C)c3ccccc3)C(=O)[C@@H]2C1 | 77.1 µM
O=C(N/N=C/c1cc2ccccc2c2ccccc12)c1cc(O)c(O)c(O)c1 | 5.98 µM
C=C1C(=O)C=C2C=C3C(=O)C(C)(C)C[C@]3(O)C12C (stereo not given in full) | 11 µM
CCN(CC)CC(C)(C)C(=O)/C=C/c1ccc(C)cc1 | 24.1 µM
CCCCCN(CCCCC)C(=O)[C@@H](CCC(=O)OCc1ccccc1)NC(=O)c1cc2ccccc2[nH]1 | > 100 µM
O=[N+]([O-])c1ccc(N(CCO)CCO)c2c1no[n+]2[O-] | 2.43 µM
N#Cc1cccc(Nc2nccc(-c3cnn4ncccc34)n2)c1 | > 8.75 µM
CC(=O)N1c2ccccc2C23CCN4CC5=CCOC(O)C(C5CC42)C13 (stereo not given) | > 100 µM
CC1=NN(C(=O)c2ccc(Cl)cc2)C(=O)/C1=C/c1cccc(O)c1 | > 100 µM
